Taken from patent US6737383B1.

Tested on: purple nutsedge
assay.method.text: Test B pre/postemergence purple nutsedge
Type: in vivo, Cyperus rotundus
conditions: Postemergence, Rate 500 g/ha; scale of 0 to 10 where 0 is no effect and 10 is complete control
Below, each entry is listed with its recorded Plant response rating, Nutsedge.
value.type: Plant response rating, Nutsedge

[[record]]
molecule = "CCC(C)n1c(=O)on(C(=O)N(c2ccccc2)C(C)C)c1=O (centres unmarked) [Compound 610]"
value_type = "Plant response rating, Nutsedge"
result = 6

[[record]]
molecule = "CC(C)N(C(=O)n1oc(=O)n(CC[N+](=O)[O-])c1=O)c1ccc(F)cc1F"
value_type = "Plant response rating, Nutsedge"
result = 0

[[record]]
molecule = "CCC(C)n1c(=O)on(C(=O)N(c2ccccc2)C(C)C)c1=O (centres unmarked) [Compound 611]"
value_type = "Plant response rating, Nutsedge"
result = 3

[[record]]
molecule = "CCN(CC)C(=O)Cn1c(=O)on(C(=O)N(c2ccccc2)C(C)C)c1=O"
value_type = "Plant response rating, Nutsedge"
result = 0

[[record]]
molecule = "CC(C)N(C(=O)n1oc(=O)n(CNC(=O)c2ccccc2)c1=O)c1ccccc1"
value_type = "Plant response rating, Nutsedge"
result = 0

